test: Metabolic stability in human liver microsomes assessed as intrinsic clearance preincubated for 5 mins followed by NADPH addition and measured up to 45 mins by LC/MS analysis; format: ADME, Microsome; conditions: time 50 min, read-out: CLH
test-readout: CLint scaled (mL/min/kg)
Field format: number, assumed mL/min/kg, no unit text.

smiles-text: CC(C)(Oc1ccc(Cl)cc1)C(=O)Nc1ccc(OCc2ccc(C#N)cc2)cc1
CLint scaled, mL/min/kg: 18

Input: Need CLint scaled, item O=C(c1ccc(F)cc1)C1CCN(CCn2c(=O)[nH]c3ccccc3c2=O)CC1
Output: 71
